procedure.text: CREB reporter modulators under forskolin, primary screen, cell-based, PC12, CRE-LacZ reporter, forskolin-stimulated (AID 1146);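 also: PC12 cells with 6xCRE LacZ reporter stimulated by forskolin 10 µM; beta-galactosidase reporter signal reflecting CREB driven transcription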
measurement.parameters: luminescence, 4.5 h, higher = more signal, called active from +8 up or from −8 down
Calls of active or inactive are those of the source.
# z-score per record follows

compound	z-score
C=CCC(OC(C)=O)[C@@H]1[C@@H](N(Cc2ccc(-c3cccc(C(F)(F)F)c3)o2)C(=O)c2cccc3ccccc23)c2cc(OCCCO)ccc2N1C(=O)Cc1ccc(OC)cc1 (some centres not stated)	0.0843 (inactive)

[in] Recorded z-score of COc1cc2c(cc1OC)CN(C(=O)[C@@H]1[C@H]3C(=O)O[C@H](c4ccccc4)[C@H](c4ccccc4)N3[C@H](c3ccc(O)cc3)[C@@]13C(=O)Nc1ccc(C#CCCO)cc13)CC2 , please.
[out] -0.231 (inactive)

[in] Same again, this time with CN(C)CCCCCCNC(=O)[C@@H]1C[C@@H]2C(=O)N[C@@H](CCCCN)C(=O)N2[C@@H]1c1ccc(O)cc1
[out] -0.643 (inactive)

[in] Same again, this time with O=C(CS)NCCCCCNC(=O)[C@@H]1C[C@@H]2C(=O)N[C@@H](Cc3ccccc3)C(=O)N2[C@@H]1c1cccc(OCCO)c1
[out] 0.432 (inactive)

[in] Same again, this time with O=c1cccc(-c2ccco2)o1
[out] 0.57 (inactive)

[in] Same again, this time with COCCOC(=O)N1C(=O)[C@@]2(c3cc(C#CC4(O)CCCCCC4)ccc31)[C@H](C(=O)N1CCN(c3ncccn3)CC1)[C@H]1C(=O)O[C@H](c3ccccc3)[C@H](c3ccccc3)N1[C@@H]2c1ccccc1OCCO
[out] 1.22 (inactive)

[in] Same again, this time with C=C(/C(=C/C[C@H](OC(=O)c1ccncc1)c1cccc(OCCO)c1)c1cnc2ccccc2c1)C(C)C
[out] -0.386 (inactive)

---

study.system: Luciferin 4-monooxygenase (Photinus pyralis) (UniProt P08659)
Sequence (P08659 whole entry, looked up): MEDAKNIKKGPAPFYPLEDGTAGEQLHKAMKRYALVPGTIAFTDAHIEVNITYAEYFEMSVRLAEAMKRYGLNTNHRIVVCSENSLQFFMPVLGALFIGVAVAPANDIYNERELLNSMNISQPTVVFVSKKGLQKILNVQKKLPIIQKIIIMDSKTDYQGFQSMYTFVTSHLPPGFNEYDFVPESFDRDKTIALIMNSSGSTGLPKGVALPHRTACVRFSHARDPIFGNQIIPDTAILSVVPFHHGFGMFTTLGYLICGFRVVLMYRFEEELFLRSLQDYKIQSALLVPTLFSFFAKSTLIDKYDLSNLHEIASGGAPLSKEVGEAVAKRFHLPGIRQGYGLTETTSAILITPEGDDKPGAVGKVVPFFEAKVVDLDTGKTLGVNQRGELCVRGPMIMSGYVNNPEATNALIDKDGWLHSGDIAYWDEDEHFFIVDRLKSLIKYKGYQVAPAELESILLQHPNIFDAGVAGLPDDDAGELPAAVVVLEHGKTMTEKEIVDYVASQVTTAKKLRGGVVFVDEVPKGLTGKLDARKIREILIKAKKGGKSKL
procedure.text: firefly luciferase enzyme inhibitors, primary screen, biochemical, luminescence, purified enzyme, 2006 set (AID 1141);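 also: cell-free assay with purified firefly luciferase at 100 ng per well in PBS; test concentration not given here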
measurement.parameters: SteadyGlo luminescence, 30 min, higher = more signal, called active from +8 up or from −8 down
# z-score per record follows
Give only the figure.

compound	reported.measurement
CO[C@H]1O[C@H](CO)[C@@H](OC(=O)Nc2ccc(C#N)cc2)[C@@H]2OC(=O)[C@H](Cc3cccc(Br)c3)C/C=C/C[C@@H](Cc3cccc(Br)c3)C(=O)O[C@@H]12	0.782
COC(=O)C1N=C(c2ccc(OCCCO)cc2)N(c2ccccc2)O1 (stereo not given)	-7.36
O=C1C[C@@](C(=O)NCC(F)(F)F)(c2ccc([N+](=O)[O-])cc2)[C@@H](c2ccc(CO)cc2)N1CC12CC3CC(CC(C3)C1)C2	0.28
C=C(CCCC)/C(=C/C[C@H](OC(C)=O)c1ccc(OCCO)cc1)c1cc(C(=O)OC)ccc1OC	-1.69

[in] Recorded z-score of COC(=O)[C@@]1(Cc2ccccc2CN=[N+]=[N-])N=C(c2ccc(OCCCO)cc2)O[C@H]1c1ccccc1CN=[N+]=[N-] , please.
[out] -2.23

---

procedure.text: PSAC antagonists in infected red cells, primary screen, cell-based, P. falciparum Indochina, OD700, 2 h (AID 1155);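 also: lysis reports solute entry through the parasite surface anion channel PSAC; channel blockers reduce lysis of infected cells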
measurement.parameters: P. falciparum Indochina infected erythrocytes, osmotic lysis OD700; higher = more signal, called active from +8 up or from −8 down
Label rule, in plain words: z-score of 2 and up is class 1, under 2 is class 0.

compound	group.label
COCCOC(=O)N1C(=O)[C@@]2(c3cc(C#CCC(C(=O)OC)C(=O)OC)ccc31)[C@H](C(=O)NC[C@H](O)c1ccccc1)[C@H]1C(=O)O[C@H](c3ccccc3)[C@H](c3ccccc3)N1[C@@H]2c1ccc(O)cc1	class 0

[in] Does z-score meet or surpass 2 for C=C[C@@H](OC)[C@H](OC(=O)Nc1ccc(SC)cc1)c1ccc(OCCO)cc1 ?
[out] class 1

[in] Same again, this time with C=C(/C(=C/C[C@H](OC(=O)c1ccncc1)c1ccccc1OCCO)c1cnc2ccccc2c1)C(C)C
[out] class 0

[in] Same again, this time with COc1cc(C(O)C2C=CC3C(=O)N(Cc4ccccc4)C(=O)C3N2n2cnnc2)cc(OC)c1OC (configuration not stated)
[out] class 0

[in] Same again, this time with Cc1ccc(S[C@]2(C(=O)NC(C)C)CC(=O)N(C(C)C)[C@@H]2c2ccc(CO)cc2I)cc1
[out] class 0

[in] Same again, this time with CCOC(=O)C=Cc1cc(F)ccc1O
[out] class 0

[in] Same again, this time with COCCOC(=O)N1C(=O)[C@@]2(c3cc(C#CC4(O)CCCCCC4)ccc31)[C@H](c1ccc(OCCO)cc1)N1[C@H](c3ccccc3)[C@H](c3ccccc3)OC(=O)[C@H]1[C@@H]2C(=O)Nc1nc2ccccc2s1
[out] class 1

---

procedure.text: CREB reporter modulators without forskolin, primary screen, cell-based, PC12, CRE-LacZ reporter, unstimulated (AID 1145)
measurement.parameters: no forskolin, luminescence, 4.5 h, higher = more signal, called active from +8 up or from −8 down
Label rule, in plain words: z-score of -0.4 and up is label 1, under -0.4 is label 0.

For orientation, consider the following solved cases.
molecule	group.label
COc1ccc(C#Cc2ccc3c(c2)[C@]2(C(=O)N3)[C@H](C(=O)Nc3nc4ccccc4s3)[C@H]3C(=O)O[C@H](c4ccccc4)[C@H](c4ccccc4)N3[C@@H]2c2ccccc2OCCO)cc1	label 0
CN(C)CCCCCCNC(=O)[C@@H]1C[C@@H]2C(=O)N[C@@H](CCCCN)C(=O)N2[C@@H]1c1ccc(O)cc1	label 0
C[C@]1(C(=O)NCCN2CCOCC2)c2ccccc2C(=O)N(Cc2cc(F)cc(C(F)(F)F)c2)[C@H]1c1ccc(CO)cc1	label 1
CN1C(=O)[C@@]2(Cc3ccccc3)N=C(c3ccc(OCCCO)cc3)O[C@H]2c2ccccc21	label 1
CCOC(=O)C[C@H]1[C@H](OC(=O)c2ccccc2-c2ccccc2)[C@@H](NC(=O)c2ccccc2)c2cc(OCCCO)ccc2N1C(=O)c1ccccc1	label 1
C[C@]1(C(=O)NCC(F)(F)F)c2ccccc2C(=O)N(Cc2ccccc2)[C@H]1c1ccc(CO)cc1	label 1

# next molecule below
[in] Does z-score meet or surpass -0.4 for CC(CO)N1C(=O)[C@@H]2[C@H]3C(=O)OCC=C[C@H]3OC23C=CCN(c2ccc(Cl)cc2)C(=O)[C@@H]13 (some centres not stated) ?
[out] label 1

---

procedure.text: COS7 lysate on small-molecule microarray, probe aHis, 635 nm (AID 1123);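 also: z-score combines 667nm fluorescence intensity with signal-to-noise per printed compound spot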
measurement.parameters: COS7 cell lysate, fluorescence, higher = more signal
readout.kind: composite z-score
Give only the figure.

molecule	reported.measurement
C=CCC(OC(C)=O)[C@@H]1[C@@H](N(Cc2cccc3ccccc23)C(=O)c2ccc(-c3ccccc3)cc2)c2cc(OCCCO)ccc2N1C(=O)c1ccc(-c2ccccc2)cc1 (some centres undefined)	0.384
CCCCCCCCCCC(O)C1C=CC2C(=O)N(C)C(=O)C2N1Nc1cc(OC)c(OC)c(OC)c1 (centres undefined)	1.44
CCCCCN1CC=CC23O[C@@H]4/C=C\CCC(C)OC(=O)C4[C@H]2C(=O)N(CCCCCCO)[C@@H]3C1=O (some centres undefined)	0.84

# context switch: different molecule, same composite z-score
[in] Recorded composite z-score of COc1ccc(C(O)C2C=CC3C(=O)N(c4ccccc4)C(=O)C3N2Nc2ccc(C(C)C)cc2)c2ccccc12 (centres undefined) , please.
[out] 2.84

---

procedure.text: PSAC antagonists in infected red cells, primary screen, cell-based, P. falciparum Indochina, OD700, 2 h (AID 1155);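 also: lysis reports solute entry through the parasite surface anion channel PSAC; channel blockers reduce lysis of infected cells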
measurement.parameters: P. falciparum Indochina infected erythrocytes, osmotic lysis OD700; higher = more signal, called active from +8 up or from −8 down
readout.kind: z-score
Give only the figure.

[in] Recorded z-score of C=C(C(=O)CC[C@H](OC(=O)c1ccccc1-c1ccccc1C(=O)O)c1ccccc1OCCO)C(C)C , please.
[out] 1.12

[in] Same again, this time with COC(=O)C(CC#Cc1ccc2c(c1)[C@]1(C(=O)N2)[C@H](C(=O)Nc2nc3ccccc3s2)[C@H]2C(=O)O[C@H](c3ccccc3)[C@H](c3ccccc3)N2[C@@H]1c1ccc(OCCO)cc1)C(=O)OC
[out] 0.782

[in] Same again, this time with CCCCCN1CC=CC23O[C@@H]4/C=C\CCC(C)OC(=O)C4[C@H]2C(=O)N(CCCCCCO)[C@@H]3C1=O (some centres undefined)
[out] 0.971

[in] Same again, this time with CCOC(=O)C[C@H]1[C@H](OC(=O)c2ccc(-c3ccccc3)cc2)[C@@H](NC(=O)CC(C)C)c2cc(OCCCO)ccc2N1C(=O)c1ccccc1
[out] 0.389

[in] Same again, this time with C=C(COC)C(=O)CC[C@H](OC(=O)c1cccnc1)c1ccc(CO)o1
[out] 0.0112

[in] Same again, this time with C=CCNC(=O)[C@@H]1[C@H]2C(=O)O[C@H](c3ccccc3)[C@H](c3ccccc3)N2[C@H](c2ccc(O)cc2)[C@@]12C(=O)Nc1ccc(C#CCC(C(=O)OC)C(=O)OC)cc12
[out] 0.792

[in] Same again, this time with CCOC(=O)C1=CCN(S(=O)(=O)c2ccc(C)cc2)C1c1ccccc1 (centres undefined)
[out] 0.8

[in] Same again, this time with CC1(C)C(=O)C(c2ccccc2)=C2CN3C(=O)N(CCc4ccccc4)C(=O)C3(Cc3ccc(F)cc3)C=C21 (centres undefined)
[out] 0.371

[in] Same again, this time with CCCNC(=O)[C@@]1(Sc2ccc(C)cc2)CC(=O)N(C2CCCCC2)[C@@H]1c1ccc(CO)cc1I
[out] 0.465

[in] Same again, this time with CC(C)C[C@@H]1NC(=O)[C@@]23C(=O)N[C@@H](Cc4ccccc4)C2[C@H](C)[C@@]2(C)O[C@H]2C3/C=C/C/C=C\CNC(=O)[C@@H](C)NC1=O (some centres undefined)
[out] -1.13

[in] Same again, this time with [N-]=[N+]=NCc1ccccc1[C@H]1OC(c2ccc(OCCCO)cc2)=N[C@@]1(Cc1ccccc1)C(=O)NCCN1CCOCC1
[out] 22.1

[in] Same again, this time with C=C(C)C1CCC(C(O)C2C=CC3C(=O)N(C)C(=O)C3N2Nc2cc(OC)c(OC)c(OC)c2)CC1 (centres undefined)
[out] 0.61

[in] Same again, this time with CN1C(=O)C2C=CC(C(O)c3cc(C(F)(F)F)cc(C(F)(F)F)c3)N(NC(=O)OC(C)(C)C)C2C1=O (centres undefined)
[out] 0.118

[in] Same again, this time with CO[C@H]1O[C@H](CO)[C@@H](OC(=O)c2ccc(Br)cc2)[C@@H]2OC(=O)[C@H](Cc3ccccc3)C/C=C/C[C@@H](Cc3ccccc3)C(=O)O[C@@H]12
[out] -0.765
